Tested on: A549 (human lung cancer)
method notes: Solid tumor cell growth inhibition, MTT, 72 h (Example 7)
Assay type: cell-based
measurement conditions: Homo sapiens; 72 h, MTT, A549
measurement name: IC90 (µg/mL)
Write it as a number; the unit µg/mL goes unstated.

molecule | measured value
COc1ccc2cc1Oc1ccc(cc1)C[C@H]1c3cc(c(OC)cc3CCN1C)Oc1c(OC)c(OC)c(CN3CCCN(C)CC3)c3c1[C@H](C2)N(C)CC3 | 10.5
COCc1c2c3c(c(OC)c1OC)Oc1cc4c(cc1OC)CCN(C)[C@H]4Cc1ccc(cc1)Oc1cc(ccc1OC)C[C@@H]3N(C)CC2 | 12.2
COc1ccc2cc1Oc1ccc(cc1)C[C@H]1c3cc(c(OC)cc3CCN1C)Oc1c(OC)c(OC)c(CNc3nccs3)c3c1[C@H](C2)N(C)CC3 | 7.85

query: Please look at this molecule and report its IC90: `COc1ccc2cc1Oc1ccc(cc1)C[C@H]1c3cc(c(OC)cc3CCN1C)Oc1c(OC)c(OC)c(CNCc3ccc(C)o3)c3c1[C@H](C2)N(C)CC3`
result: 16

query: Please look at this molecule and report its IC90: `COc1ccc2cc1Oc1ccc(cc1)C[C@H]1c3cc(c(OC)cc3CCN1C)Oc1c(OC)c(OC)c(CN3CC=CC3)c3c1[C@H](C2)N(C)CC3`
result: 4.77

query: Please look at this molecule and report its IC90: `COc1ccc2cc1Oc1ccc(cc1)C[C@H]1c3cc(c(OC)cc3CCN1C)Oc1c(OC)c(OC)c(CN3CCN(CCO)CC3)c3c1[C@H](C2)N(C)CC3`
result: 14.6

query: Please look at this molecule and report its IC90: `COc1ccc2cc1Oc1ccc(cc1)C[C@H]1c3cc(c(OC)cc3CCN1C)Oc1c(OC)c(OC)c(CNCc3ccco3)c3c1[C@H](C2)N(C)CC3`
result: 11

query: Please look at this molecule and report its IC90: COc1ccc2cc1Oc1ccc(cc1)C[C@H]1c3cc(c(OC)cc3CCN1C)Oc1c(OC)c(OC)c(COCC3CCOC3)c3c1[C@H](C2)N(C)CC3 (some centres unmarked)
result: 10.1

query: Please look at this molecule and report its IC90: `COc1ccc2cc1Oc1ccc(cc1)C[C@H]1c3cc(c(OC)cc3CCN1C)Oc1c(OC)c(OC)c(CN3CCN(C)CC3)c3c1[C@H](C2)N(C)CC3`
result: 9.2
